# Test system: SK-BR3
# procedure.summary: CDI of example compounds and Lapatinib (ATPlite cell survival)
# Type: cell-based
# Set-up: key: CDI = AB/(A×B); <1 synergistic
# condition.set: compound 5 μM + Lapatinib 1 μM, 72 h; Lapatinib-sensitive human breast cancer cells; CDI<1 synergistic
# From the text: Cells: (BT474 and SK-BR3 are Lapatinib-sensitive human breast cancer cell strains; BT/LapR and SK/LapR are secondary Lapatinib-resistant human breast cancer cell strains upon Lapatinib stimulation; MDA-MB-361 and MDA-MB-453 are natural Lapatinib-resistant human breast cancer cell strains. BT474, MDA-MB-361, SK-BR3 and MDA-MB-453 are from American Type Culture Collection (ATCC)) […]
metric: CDI of example compounds and Lapatinib, SK-BR3
API doc: respond with a numeric literal and nothing else, no unit.

Some compounds with recorded CDI of example compounds and Lapatinib, SK-BR3:
compound	value
COc1cc(/C=C/C(=O)NC(NC(=S)Nc2ccccc2)C(C)C)cc(OC)c1OC (stereo not drawn)	1.07
COc1cc(/C=C/C(=O)NC(NC(=S)NC2CCCCC2)C(C)(C)C)cc(OC)c1OC (stereo not drawn)	0.88

Documented CDI of example compounds and Lapatinib, SK-BR3 of COc1cc(/C=C/C(=O)NC(NC(=S)Nc2cccnc2)C(C)(C)C)cc(OC)c1OC (stereo not drawn) : 1

Recorded CDI of example compounds and Lapatinib, SK-BR3 (compound CC(C)(C)CC(NC(=O)/C=C/c1ccccc1)NC(=S)Nc1ccccc1 (stereo not drawn) ): 1.2

// sample COc1cc(/C=C/C(=O)NC(CC(C)C)NC(=S)Nc2cccnc2)cc(OC)c1OC (stereo not drawn) , its CDI of example compounds and Lapatinib, SK-BR3 was 1.04

Field CDI of example compounds and Lapatinib, SK-BR3 (entry CC(C)CC(NC(=O)/C=C/c1ccccc1)NC(=S)Nc1ccccc1 (stereo not drawn) ) reads 1.16

====

# Tested on: BT474
# procedure.summary: CDI of example compounds and Lapatinib (ATPlite cell survival)
# Type: cell-based
# Parameters: key: CDI = AB/(A×B); <1 synergistic
# condition.set: compound 5 μM + Lapatinib 1 μM, 72 h; Lapatinib-sensitive human breast cancer cells; CDI<1 synergistic, <0.7 very significant, >1 antagonistic
metric: CDI of example compounds and Lapatinib, BT474

compound	value
CC(C)(C)C(NC(=O)/C=C/c1ccccc1)NC(=S)NC1CCCCC1 (centres unmarked)	0.77

# lookup: COc1cc(/C=C/C(=O)NC(CC(C)(C)C)NC(=S)Nc2ccccn2)cc(OC)c1OC (centres unmarked) on BT474, CDI of example compounds and Lapatinib, BT474 = 0.98

BT474 data for CC(C)C(NC(=O)/C=C/c1ccccc1)NC(=S)Nc1ccccc1 (centres unmarked) ; its CDI of example compounds and Lapatinib, BT474: 0.92

Case COc1cc(/C=C/C(=O)NC(NC(=S)NC2CCCCC2)C(C)C)cc(OC)c1OC (centres unmarked) , BT474, CDI of example compounds and Lapatinib, BT474 recorded as 0.82

Record COc1cc(/C=C/C(=O)NC(NC(=S)Nc2ccccn2)C(C)C)cc(OC)c1OC (centres unmarked) ; system BT474; CDI of example compounds and Lapatinib, BT474 = 0.96

====

Listed here are compounds together with their documented CDI of example compounds and Lapatinib, SK-BR3.
# System: SK-BR3
# procedure.summary: CDI of example compounds and Lapatinib (ATPlite cell survival)
# Type: cell-based
# Design: key: CDI = AB/(A×B); <1 synergistic
# condition.set: compound 5 μM + Lapatinib 1 μM, 72 h; Lapatinib-sensitive human breast cancer cells; CDI<1 synergistic
Reply with the value as a number alone.

compound	study.target	value
COc1cc(/C=C/C(=O)NC(CC(C)C)NC(=S)Nc2ccccc2)cc(OC)c1OC (stereo not shown)	SK-BR3	1.04
O=C(/C=C/c1ccccc1)NC(NC(=S)Nc1ccccn1)C1CC1 (stereo not shown)	SK-BR3	0.99
COc1cc(/C=C/C(=O)NC(CC(C)(C)C)NC(=S)Nc2ccccn2)cc(OC)c1OC (stereo not shown)	SK-BR3	0.98

// sample COc1cc(/C=C/C(=O)NC(CC(C)(C)C)NC(=S)Nc2cccnc2)cc(OC)c1OC (stereo not shown) , its CDI of example compounds and Lapatinib, SK-BR3 was 0.96

====

Reported CDI of example compounds and Lapatinib, SK-BR3 values follow for various compounds
# System: SK-BR3
# procedure.summary: CDI of example compounds and Lapatinib (ATPlite cell survival)
# Type: cell-based
# Parameters: key: CDI = AB/(A×B); <1 synergistic
# condition.set: compound 5 μM + Lapatinib 1 μM, 72 h; Lapatinib-sensitive human breast cancer cells; CDI<1 synergistic
Lab note: jot the number down without any unit.

compound	value
Cc1ccccc1NC(=S)NC(CC(C)C)NC(=O)/C=C/c1ccccc1 (centres unmarked)	1.15
COc1cc(/C=C/C(=O)NC(NC(=S)Nc2ccccc2C)C2CC2)cc(OC)c1OC (centres unmarked)	1.05
Cc1ccccc1NC(=S)NC(NC(=O)/C=C/c1ccccc1)C(C)(C)C (centres unmarked)	1.15
COc1cc(/C=C/C(=O)NC(NC(=S)NC2CCCCC2)C(C)C)cc(OC)c1OC (centres unmarked)	0.97
COc1ccc(NC(=S)NC(NC(=O)/C=C/c2cc(OC)c(OC)c(OC)c2)C(C)C)cc1 (centres unmarked)	1.06
COc1cc(/C=C/C(=O)NC(NC(=S)Nc2ccccn2)C(C)C)cc(OC)c1OC (centres unmarked)	0.99
COc1cc(/C=C/C(=O)NC(CC(C)(C)C)NC(=S)Nc2ccccc2)cc(OC)c1OC (centres unmarked)	1.13

Now look at this one.
GET /value?item= CC(C)(C)C(NC(=O)/C=C/c1ccccc1)NC(=S)NC1CCCCC1 (centres unmarked) &field=CDI of example compounds and Lapatinib, SK-BR3 returns 1.19

====

# System: BT474
# procedure.summary: CDI of example compounds and Lapatinib (ATPlite cell survival)
# Format: cell-based
# Design: key: CDI = AB/(A×B); <1 synergistic
# condition.set: compound 5 μM + Lapatinib 1 μM, 72 h; Lapatinib-sensitive human breast cancer cells; CDI<1 synergistic, <0.7 very significant, >1 antagonistic
Measured CDI of example compounds and Lapatinib, BT474 by item
Lab note: jot the number down without any unit.

Solved cases (2 shown):
molecule	value
COc1cc(/C=C/C(=O)NC(NC(=S)Nc2ccccc2C)C2CC2)cc(OC)c1OC (stereo not shown) [Example 45]	1.59
COc1cc(/C=C/C(=O)NC(CC(C)C)NC(=S)Nc2cccnc2)cc(OC)c1OC (stereo not shown) [Example 25]	0.94

Recorded result, Cc1ccccc1NC(=S)NC(NC(=O)/C=C/c1ccccc1)C1CC1 (stereo not shown) [Example 49] , CDI of example compounds and Lapatinib, BT474: 0.9

Entry Cc1ccccc1NC(=S)NC(NC(=O)/C=C/c1ccccc1)C(C)(C)C (stereo not shown) [Example 48] , CDI of example compounds and Lapatinib, BT474 reported as 0.92

====

# System: BT474
# procedure.summary: CDI of example compounds and Lapatinib (ATPlite cell survival)
# Type: cell-based
# Parameters: key: CDI = AB/(A×B); <1 synergistic
# condition.set: compound 5 μM + Lapatinib 1 μM, 72 h; Lapatinib-sensitive human breast cancer cells; CDI<1 synergistic, <0.7 very significant, >1 antagonistic
metric: CDI of example compounds and Lapatinib, BT474
Give the figure only, with no unit attached.

compound	study.target	value
COc1cc(/C=C/C(=O)NC(NC(=S)Nc2cccnc2)C2CC2)cc(OC)c1OC (stereo not shown) [Example 29]	BT474	1.05
CC(C)C(NC(=O)/C=C/c1ccccc1)NC(=S)NC1CCCCC1 (stereo not shown) [Example 55]	BT474	0.89
CC(C)CC(NC(=O)/C=C/c1ccccc1)NC(=S)Nc1ccccc1 (stereo not shown) [Example 38]	BT474	0.86

Value of CDI of example compounds and Lapatinib, BT474 reported for the compound COc1cc(/C=C/C(=O)NC(CC(C)C)NC(=S)NC2CCCCC2)cc(OC)c1OC (stereo not shown) [Example 51] is 0.73

====

# System: SK-BR3
# procedure.summary: CDI of example compounds and Lapatinib (ATPlite cell survival)
# Type: cell-based
# Set-up: key: CDI = AB/(A×B); <1 synergistic
# condition.set: compound 5 μM + Lapatinib 1 μM, 72 h; Lapatinib-sensitive human breast cancer cells; CDI<1 synergistic
Lab note: cut-off is 1. Strictly less in CDI of example compounds and Lapatinib, SK-BR3 is class 1. Exactly 1 or more is class 0.

Worked set:
compound	study.target	category
Cc1ccccc1NC(=S)NC(NC(=O)/C=C/c1ccccc1)C1CC1 (stereo not drawn)	SK-BR3	class 0
CC(C)C(NC(=O)/C=C/c1ccccc1)NC(=S)Nc1ccccc1 (stereo not drawn)	SK-BR3	class 0
COc1cc(/C=C/C(=O)NC(NC(=S)Nc2ccccn2)C2CC2)cc(OC)c1OC (stereo not drawn)	SK-BR3	class 1
CC(C)(C)C(NC(=O)/C=C/c1ccccc1)NC(=S)Nc1ccccc1 (stereo not drawn)	SK-BR3	class 0

Now consider a different compound.
## Task Hi there! Is CDI of example compounds and Lapatinib, SK-BR3 for COc1cc(/C=C/C(=O)NC(NC(=S)Nc2ccccc2)C(C)(C)C)cc(OC)c1OC (stereo not drawn) below 1, do you know?
## Result class 0

The values you see were collected from patent US9718770B2.
